assay details: folding stability dG unfold (combined trypsin and chymotrypsin); higher = more stable
experimental readout: folding stability dG unfold (kcal/mol)
The reply should contain only the number, in kcal/mol.

Give the measured folding stability dG unfold of SAEPTLAEATNDPATGTATANFPLENLPPDYRVLAVNLETGEVTEFPPDGEVTITAPEGPVLVKLFWKGSAG [r14_134_TrMRF] . 0.213

Give the measured folding stability dG unfold of SAGGSMKTITDPGNLSEEEIKKILSKFPPNTTVTIEFPDATHTVTLNPDKIEISRDPSYPNFRITITISSAG [r5_373_JUSTAS] . 1.72

Give the measured folding stability dG unfold of SAGGSAGGSAGGKIEIDNIERFRPPNGNRYYKMTIRVEGNGKEREIWAPADDADNFKIESAGGSAGGSAGGS [r10_326_TrROS] . -0.474

Give the measured folding stability dG unfold of SMIKPGEKIKKIKLKLENGEEVEATLVKNEDGSLVLFIKVDGEVYVFTFNPDGEIKIEKVSKEEAEKLLKSA [r9_1144_TrROS_Hall] . 3.4

Give the measured folding stability dG unfold of SMSFEAELTLPDQPVTVPVTLDPATGTATVTVTTTHPDRDETTTTTVTVSDPSELLALLRELPPGATLRLSA [r9_713_JUSTAS] . 0.771

Give the measured folding stability dG unfold of SAGGSAGGSAGKKKYKIVSIEIERNKDGNSLTVKIKLENGKELTLTFPTEEDLKNLKIKASAGGSAGGSAGG [r11_711_TrROS_Hall] . 2.78

Give the measured folding stability dG unfold of SAGGSAGGSAKMIIRIRNKNGKIIELTLEEVAKKLGLSKEEMTAEEILKKLKENIEKVEILPSAGGSAGGSA [r18_403_TrROS_Hall] . 3.1

Give the measured folding stability dG unfold of SAGGSAGGNVILVETGPDGRARVLVFDPETGKVTEYEVPADDLDAIEAIAADKVDLVIVRPVGPSAGGSAGG [r6_639_TrMRF] . 2.07

Give the measured folding stability dG unfold of SMKKILIIVPKEMSEEEVEALVKELLEKLGLPEGAEVEILTEEELEKNPELKKKLEEAEKKGADLVIIIPSA [r9_1147_TrROS_Hall] . 3.12

Give the measured folding stability dG unfold of SAGGMRIYIPPELPEEKVEEIREEAEEEFPVEVTLERFPEPGYVVLEFEGEEEELYRRIEEKIREKGSAGGS [r16_227_TrMRF] . 1.55

Give the measured folding stability dG unfold of SAGSITITIETLPDGTIRITIPYTSEEEAKKVAEEVAKEIAEKLGEEVIKFEVTPEDDDTLILTIPIKKSAG [r5_772_JUSTAS] . 1.78

Give the measured folding stability dG unfold of SAGNIKIEDIEPNDDYYTLVIKAPENGRTIMIQYNPNNNRIPIMIFPPGGVRTIPIPMNDIEDFLKEILSAG [r5_769_TrROS] . 0.893

Give the measured folding stability dG unfold of SADIKIDDIETQENPDGYEWYMITINFPDPKKFKEKLKKHGVNPEWDPNDPDQVEIWFPREDIQEILKLSAG [r14_777_TrROS] . 0.665

Give the measured folding stability dG unfold of SAGGSAGGSAGGSMIVVPVTSNEVVDNLGGPVTVPAGTVIIIERTENSVKVEVLPPEKLSAGGSAGGSAGGS [r10_353_JUSTAS] . 0.643
